Entries and their measured half-life follow.
Test: Pharmacokinetics after single i.v. administration to rats (plasma, UHPLC-MS/MS)
Type: in vivo, Wistar rats
Settings: male, Wistar, rat, plasma, iv, 2 mg/kg, rats, i.v. 2 mg·kg^−1, two-compartment population model, Bayesian estimates, mean ± S.D.; read-out: t1/2beta (elimination half-life) (converted)
Write the number in h without appending the unit.

- molecule: "CN(C)C(=S)NN=C(c1ccccn1)c1ccccn1 [Dp44mT]"
  assay_metric: "half-life"
  unit_symbol: "h"
  numeric_value: 1.7

Attention now shifts to the item below.
So what's the measured half-life for this one? CN(C(=S)NN=C(c1ccccn1)c1ccccn1)C1CCCCC1
10.7

----------
Entries and their measured clearance follow.
Test: Pharmacokinetics after single i.v. administration to rats (plasma, UHPLC-MS/MS)
Type: in vivo, Wistar rats
Settings: male, Wistar, rat, plasma, iv, 2 mg/kg, rats, i.v. 2 mg·kg^−1, two-compartment population model, Bayesian estimates, mean ± S.D.; read-out: CL (total clearance) (converted)
Write the number in mL/min/kg without appending the unit.

So what's the measured clearance for this one? CN(C(=S)NN=C(c1ccccn1)c1ccccn1)C1CCCCC1
3.1

Input CN(C)C(=S)NN=C(c1ccccn1)c1ccccn1 [Dp44mT]
71.8

----------
Test: Pharmacokinetics after single i.v. administration to rats (plasma, UHPLC-MS/MS)
Format: in vivo, Wistar rats
Details: male, Wistar, rat, plasma, iv, 2 mg/kg, rats, i.v. 2 mg·kg^−1, non-compartmental analysis of geometric mean plasma curves; Dp4mT = metabolite after Dp44mT dosing; read-out: Cmax
assay_metric: Cmax (nM)
Write the number in nM without appending the unit.

Below, each entry is followed by its recorded Cmax result.
- compound: "CNC(=S)NN=C(c1ccccn1)c1ccccn1"
  assay_metric: "Cmax"
  numeric_value: 496
- compound: "CN(C)C(=S)NN=C(c1ccccn1)c1ccccn1 [Dp44mT]"
  assay_metric: "Cmax"
  numeric_value: 2550

So what's the measured Cmax for this one? CN(C(=S)NN=C(c1ccccn1)c1ccccn1)C1CCCCC1
5510

----------
Entries and their measured IC50 follow.
Test system: 3T3 mouse embryo fibroblast line
Experiment: MTT proliferation/viability assay, 3T3
Assay type: cell-based
Details: 72 h/37°C, mean ± S.D., serum- and pyruvate-free DMEM
Write the number in µM without appending the unit.

- compound: "CN(C)C(=O)NN=C(c1ccccn1)c1ccccn1 [Dp44mS]"
  unit_symbol: "µM"
  IC50: 139

So what's the measured IC50 for this one? CN(C(=O)NN=C(c1ccccn1)c1ccccn1)C1CCCCC1
12.8

----------
Assay: Pharmacokinetics after single i.v. administration to rats (plasma, UHPLC-MS/MS)
Format: in vivo, Wistar rats
Conditions: male, Wistar, rat, plasma, iv, 2 mg/kg; read-out: AUC0-tlast
assay_metric: AUC(0-t)

Below, each entry is followed by its recorded AUC(0-t) result.
- compound: "CN(C)C(=S)NN=C(c1ccccn1)c1ccccn1 [Dp44mT]"
  AUC(0-t): "1.34 µM·h"
- compound: "CN(C(=S)NN=C(c1ccccn1)c1ccccn1)C1CCCCC1"
  AUC(0-t): "32.2 µM·h"

Attention now shifts to the item below.
So what's the measured AUC(0-t) for this one? CNC(=S)NN=C(c1ccccn1)c1ccccn1
0.671 µM·h

----------
Tested on: 3T3 mouse embryo fibroblast line
Test: MTT proliferation/viability assay, 3T3
Assay type: cell-based
Settings: 72 h/37°C, mean ± S.D., serum- and pyruvate-free DMEM
assay_metric: pIC50
Reminder that pIC50 is minus the log10 of a molar concentration.

So what's the measured pIC50 for this one? CN(C)C(=S)NN=C(c1ccccn1)c1ccccn1 [Dp44mT]
6.80

Input CN(C(=S)NN=C(c1ccccn1)c1ccccn1)C1CCCCC1
6.39

Input CN(C=NN=C(c1ccccn1)c1ccccn1)C1CCCCC1
3.19
